Data credit: PubChem BioAssay (NCI)

In this section, each of the compounds is paired with its reported growth.
Test system: RXF 393 renal
Assay: NCI-60 one-dose screen, 48 h (100 = growth as untreated, 0 = no growth, -100 = all killed)
Conditions: 10 µM unless noted
Procedure: Cells are grown in 96 well plates and exposed to the test compound for 48 hours. Compounds are tested at a single concentration, which is 10^-5 M for most compounds. The reported endpoint is percent growth (GI% or GIPRCNT), where numbers from 0 - 100% represent growth inhibition, and numbers from -100% - 0 represent cell death. For example, a value of 40 represents 60% growth inhibition. A value of 0 means no net growth occurred over the course of the experiment. […]
This is part of a sample that, as a whole, favours compounds with a hit. Of some 83,000 tested, about 20% had one in any assay.

| COMPOUND | growth / % |
| --- | --- |
| CC(=O)[O][Hg][O]C(C)=O | 98.2 |
| O=C(O)c1ccc([S-])cc1.[Au+].c1ccc(CN2[CH-]N(Cc3ccccc3)C(c3ccccc3)=C2c2ccccc2)cc1 | -88.9 |
| COc1cccc2c1c(C(=O)C(=O)Nc1cc(C)no1)cn2Cc1ccc(F)cc1 | 77.4 |
| CCCC(=O)O[C@@H]1C[C@H]2C[C@@H](O[C@@H]3O[C@@H](C)[C@@H](O)[C@@H](O)[C@H]3OC)C[C@@H](C[C@@H](C)/C=C/C=C\C[C@@H]3O[C@@H](C[C@@H]3C)[C@@H](O)C[C@H]3C[C@@]1(O)C(=O)O3)O2 | 72.1 |
| N#CCCNc1ccccc1 | 106 |
| O=NNc1ccccn1 | 83.8 |
| CCCCCCCCC(CO)NCCc1ccccc1 (stereo not given) | 136 |
| COC(=O)[C@@H](C)C[C@H](Cc1ccccc1)NC(=O)c1nc([C@@H](C[C@H](C(C)C)N(C)C(=O)[C@@H](NC(=O)[C@H]2CCCCN2C)C(C)C)OC(C)=O)sc1C(C)C | 23.7 |
| Clc1ccc(CO/N=C(\Cn2ccnc2)c2ccc(Cl)cc2Cl)c(Cl)c1 | -59.8 |
| COC1CC2c3ccccc3C1C(C)=[N+]2C (stereo not given) | 98 |
| COc1cc(C=Nc2cccc(Br)c2)ccc1N(CCCl)CCCl | 2.86 |
| CSc1nc(Cl)cc(N2CC2)n1 | 111 |
| CCn1cnc2c(Nc3cccc(Cl)c3)nc(N[C@@H]3CCCC[C@@H]3N)nc21 | -44.5 |
| COC(=O)[C@@H](C)C[C@H](Cc1ccccc1)NC(=O)c1csc([C@@H](C[C@H](C(C)C)N(C)C(=O)[C@@H](NC(=O)[C@H]2CCCCN2C)C(C(F)(F)F)C(F)(F)F)OC(C)=O)n1 | 46 |
| COC(=O)[C@@H](C)C[C@H](Cc1ccccc1)NC(=O)c1nc([C@@H](C[C@H](C(C)C)N(C)C(=O)[C@@H](NC(=O)[C@H]2CC(=O)CCN2C)C(C)C)OC(C)=O)sc1C(C)C | 6.58 |
| c1ccc(COc2ccc3[nH]cc(CCN(Cc4ccccc4)Cc4ccccc4)c3c2)cc1 | 91.2 |
| CC1=C(CCCNS(C)(=O)=O)C2=C(C)C3(CC3)[C@@](C)(O)C(=O)C2=C1 | -75.6 |
| N#CC1(c2ccccc2)CCN(Cc2ccccc2)CC1 | 105 |
| O=C(CN1CCN(C(=O)c2ccco2)CC1)Nc1ccc(Cl)cc1C(=O)c1ccccc1Cl | -11.8 |
| OCc1ccc2c(c1)OCO2 | 103 |
